test-target: Steroidogenic factor 1 (Homo sapiens, UniProt Q13285)
Sequence (Q13285 whole entry): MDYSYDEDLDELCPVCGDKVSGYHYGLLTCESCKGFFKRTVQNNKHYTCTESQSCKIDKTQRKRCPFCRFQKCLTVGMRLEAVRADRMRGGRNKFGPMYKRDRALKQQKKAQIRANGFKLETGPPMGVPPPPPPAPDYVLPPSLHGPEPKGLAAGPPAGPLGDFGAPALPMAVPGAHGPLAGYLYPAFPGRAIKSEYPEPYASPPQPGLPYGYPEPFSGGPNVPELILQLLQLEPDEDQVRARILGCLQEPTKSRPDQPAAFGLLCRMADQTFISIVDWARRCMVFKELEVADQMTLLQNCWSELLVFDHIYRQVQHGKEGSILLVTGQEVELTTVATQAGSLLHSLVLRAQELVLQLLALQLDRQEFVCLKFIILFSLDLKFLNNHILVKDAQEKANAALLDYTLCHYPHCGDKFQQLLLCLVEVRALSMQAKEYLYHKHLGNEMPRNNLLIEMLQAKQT
procedure-text: SF-1 driven luciferase reporter response, dose response, counter-screen for RORA activator project, CHO-K1 cells (AID 695)
measured-endpoint: EC50 (nM)

compound | unit-label | EC50
CCCCOc1ccc(-c2nnn(CC(=O)NCc3ccco3)n2)cc1 | nM | 1880

I. COc1cc(C)c(C(C)C)cc1S(=O)(=O)n1cnc(C)c1
II. CC(C)CNS(=O)(=O)c1ccc(C(=O)Nc2ccc3c(c2)OCCO3)cc1 [MLS000032888]
III. CCn1c(Cn2nnc(-c3ccccc3)n2)nnc1SCC(=O)Nc1ccc(C(C)=O)cc1 [MLS000068275]
Q) Sort ascending by EC50. # answer = labels listed in requested order
A) I, III, II
(I: 1320 nM, III: 2150 nM, II: 5530 nM)

---

test-target: UniProt:Q13285
procedure-text: SF-1 driven luciferase reporter response, dose response, counter-screen for RORA activator project, CHO-K1 cells (AID 695)
measured-endpoint: EC50 (µM)

I. Cc1ccccc1Cn1ccc(NC(=O)c2onc(C)c2Cl)n1
II. Cc1cc(NC(=O)c2oc3ccccc3c2C)ccc1-n1cnnn1
Q) Smaller EC50 value, I vs II ? Answer by quoting the chosen item's label.
A) II

---

test-target: Steroidogenic factor 1 (Homo sapiens, UniProt Q13285)
procedure-text: SF-1 driven luciferase reporter response, dose response, counter-screen for RORA activator project, CHO-K1 cells (AID 695)
measured-endpoint: EC50 (µM)

sample-smiles | EC50 / µM
COc1ccccc1-c1nc(-c2ccncc2)no1 | 1.24

a. CCOc1cc(N2CCOCC2)c(OCC)cc1NS(=O)(=O)c1ccc(Cl)s1
b. O=C(NCc1cccs1)c1noc2c1CCCC2
Q) Returns the identifier with the smallest measured EC50 among a and b . Respond with the label that goes with your answer.
A) a
(a: 1.22 µM, b: 5.05 µM)

I. CCOc1ccc2nc(NC(=O)c3cnccn3)sc2c1
II. Oc1coc2ccc(OCc3ccc(F)cc3)cc12
Q) In the pair I and II , the larger recorded EC50 belongs to which? Kindly state the label of the option you pick.
A) II

1. Cc1nc(N=CN(C)C)sc1C(=O)Nc1ccccc1
2. O=C(Nc1ccc2nc(-c3ccc(Br)o3)[nH]c2c1)c1cccs1
3. COc1ccc(C(=O)Nc2cc(C)on2)cc1
Q) Order the items by recorded EC50; the first position goes to the largest value. Response format: the labels, sorted as the prompt asks.
A) 1, 2, 3
(1: 6.15 µM, 2: 4.11 µM, 3: 0.918 µM)

---

test-target: Steroidogenic factor 1 (Homo sapiens, UniProt Q13285)
procedure-text: SF-1 driven luciferase reporter response, dose response, counter-screen for RORA activator project, CHO-K1 cells (AID 695)
measured-endpoint: EC50 (µM)

Observe how each entry below is paired with its result.
compound | test-target | EC50 [µM]
CCc1nnc2c3cnn(-c4ccccc4)c3ncn12 | Steroidogenic factor 1 (Homo sapiens, UniProt Q13285) | 5.08
C=CCOc1ccc(C=CC(C)N=O)cc1 (stereo unspecified) | Steroidogenic factor 1 (Homo sapiens, UniProt Q13285) | 1.02
O=C(Nc1nnc(C23CC4CC(CC(C4)C2)C3)s1)c1ccco1 | Steroidogenic factor 1 (Homo sapiens, UniProt Q13285) | 0.257
CC1=CCC(COC(=O)Nc2ccccc2)CC1 (stereo unspecified) | Steroidogenic factor 1 (Homo sapiens, UniProt Q13285) | 1.24
COc1cccc(NC(=O)c2nnn(Cc3ccc(Br)cc3F)c2N)c1 | Steroidogenic factor 1 (Homo sapiens, UniProt Q13285) | 4.38
Cc1ccc(-c2nc(C#N)c(NCc3ccco3)o2)cc1 | Steroidogenic factor 1 (Homo sapiens, UniProt Q13285) | 3.42

1. COc1ccccc1-c1nnc(NC(C)=O)s1
2. COc1ccc(Nc2oc(-c3ccccc3Cl)nc2C#N)cc1
Q) Pick one: 1 or 2 . Which has the bigger EC50 number? Indicate your choice by writing its label.
A) 2
(2: 2.74 µM, 1: 1.3 µM)

---

test-target: Steroidogenic factor 1 (Homo sapiens)
procedure-text: SF-1 driven luciferase reporter response, dose response, counter-screen for RORA activator project, CHO-K1 cells (AID 695)
measured-endpoint: EC50 (nM)

compound | test-target | EC50 [nM]
COc1cccc(-c2noc(-c3cccs3)n2)c1 | Steroidogenic factor 1 (Homo sapiens) | 226
CC(=O)C(C)Oc1ccc2c3c(c(=O)oc2c1C)CCCC3 (centres undefined) | Steroidogenic factor 1 (Homo sapiens) | 807
Clc1ccc(-c2nnc(-c3ccccc3Cl)o2)cc1 | Steroidogenic factor 1 (Homo sapiens) | 233

I. Cc1cccn2cc(-c3ccccc3)nc12 [8-methyl-2-phenyl-imidazo[1,2-a]pyridine]
II. COc1ccc(C(=O)n2c(-c3ccco3)nc3ccccc32)cc1 [MLS000039368]
Q) Which value of EC50 is numerically greater: that of I or that of II ? The response must carry the label of the picked entry.
A) II

---

Quick reference: EC50 of the listed items.
test-target: Steroidogenic factor 1 (Homo sapiens)
procedure-text: SF-1 driven luciferase reporter response, dose response, counter-screen for RORA activator project, CHO-K1 cells (AID 695)

sample-smiles | data-value
CCN(CCCNC(=O)c1cn(CC)c2ccc(S(=O)(=O)N(C)C)cc2c1=O)c1cccc(C)c1 | > 99 µM
Cn1c(SCc2ccccc2F)nc2cccnc21 | > 1.22 µM

Q) Respond only with EC50 recorded for "Cc1ccc2nc(Nc3ccc4[nH]c(O)nc4c3)c(-n3nc(C)cc3C)nc2c1"
A) > 1.22 µM

---

test-target: UniProt Q13285
procedure-text: SF-1 driven luciferase reporter response, dose response, counter-screen for RORA activator project, CHO-K1 cells (AID 695)
measured-endpoint: EC50

Example entries begin here.
compound | data-value
CCOC(=O)Nc1ccc2c(c1)Nc1ccccc1S2 | > 3.67 µM
COc1ccc(C(O)P(=O)(O)CCc2ccccc2)cc1 (stereo not drawn) | > 99 µM
Nc1c(C(=O)NCCN2CCOCC2)c2nc3ccccc3nc2n1-c1ccc2c(c1)OCO2 | > 11 µM
O=C1N(CCCN2C(=O)C3(OCCO3)c3ccccc32)c2ccccc2C12OCCO2 | > 99 µM

Please look at the following compound next.
Q) For the compound CCOc1ccc(C=CC(C)N=O)cc1 (stereo not drawn) , give its reported EC50.
A) > 0.407 µM

---

test-target: UniProt:Q13285
procedure-text: SF-1 driven luciferase reporter response, dose response, counter-screen for RORA activator project, CHO-K1 cells (AID 695)
pEC50: −log10 of the molar value.
Each record here notes measured pEC50.

compound | pEC50
Cc1cc(N)c(NC2=CC(=O)CC(C)(C)C2)cc1C | < 4.96
Oc1ccc(Cl)cc1C=Nc1nc2ccccc2[nH]1 | < 4.00
COC(=O)c1c(NC(=O)CC2SCC(C(=O)OC)NC2=O)sc2c1CCCC2 (centres undefined) | < 4.00

Now look at this entry.
Q) Let me know recorded pEC50 for "COc1ccc(CCC(=O)Nc2ccc3c(c2)OCCO3)cc1" , thanks.
A) < 4.00

---

# pEC50 values compiled below
test-target: Steroidogenic factor 1 (Homo sapiens)
procedure-text: SF-1 driven luciferase reporter response, dose response, counter-screen for RORA activator project, CHO-K1 cells (AID 695)
pEC50: −log10 of the molar value.

# count of solved cases: 2
compound | data-value
Cc1ccc2c(c1)c1c3n2CCCNC3CCC1 (stereo not drawn) [MLS000105423] | < 4.00
CCOC(=O)CSc1nc2cc(OCC)ccc2cc1C#N | 5.48

Next compound, please.
Q) Determine its reported pEC50: "CCOC(=O)c1ccccc1NC(=O)CSc1nnnn1C1CCCCC1"
A) < 4.00

Values from BindingDB's records for doi:10.7270/Q2028PXQ
